Listed here: items and their measured binary diffusion coefficient.
assay: xn = mol fraction of the nth substance listed; details: 453.2 K; 101 kPa; Liquid; x1 = 0
measured-metric: binary diffusion coefficient (m2/s)

In [3]: df
Out[3]:
                                   molecule  recorded_measurement
0  c1ccc2c(c1)sc1ccccc12 [dibenzothiophene] + CCCCCCCCCCCCCC              3.96e-09
1  c1ccc2nc3ccccc3cc2c1 [acridine] + CCCCCCCCCCCCCC              3.96e-09
2  c1ccc2cc3ccccc3cc2c1 [anthracene] + CCCCCCCCCCCCCC              5.56e-09
3  c1ccc2sccc2c1 [benzo[b]thiophene] + CCCCCCCCCCCCCC              4.77e-09
4  c1ccc2ccccc2c1 [naphthalene] + CCCCCCCCCCCCCC              5.56e-09

* * *

Listed here: items and their measured binary diffusion coefficient.
assay: xn = mol fraction of the nth substance listed; details: 373.2 K; 101 kPa; Liquid; x1 = 0
measured-metric: binary diffusion coefficient (m2/s)

>>> print(df.to_string())
                                   molecule  measurement_unit  recorded_measurement
0  c1ccc2cc3ccccc3cc2c1 [anthracene] + CCCCCCCCCCCCCC              m2/s              1.38e-09
1  c1ccc2ccccc2c1 [naphthalene] + CCCCCCCCCCCCCC              m2/s              2.28e-09
2  c1ccc2nc3ccccc3cc2c1 [acridine] + CCCCCCCCCCCCCC              m2/s                 2e-09
3  c1ccc2sccc2c1 [benzo[b]thiophene] + CCCCCCCCCCCCCC              m2/s               2.1e-09

* * *

assay: xn = mol fraction of the nth substance listed; details: 393.2 K; 101 kPa; Liquid; x1 = 0
measured-metric: binary diffusion coefficient (m2/s)

In [3]: df
Out[3]:
                                   molecule               measured_metric  recorded_measurement
0  c1ccc2cc3ccccc3cc2c1 [anthracene] + CCCCCCCCCCCCCC  binary diffusion coefficient              2.03e-09
1  c1ccc2c(c1)sc1ccccc12 [dibenzothiophene] + CCCCCCCCCCCCCC  binary diffusion coefficient              2.13e-09
2  c1ccc2sccc2c1 [benzo[b]thiophene] + CCCCCCCCCCCCCC  binary diffusion coefficient              2.51e-09
3  c1ccc2nc3ccccc3cc2c1 [acridine] + CCCCCCCCCCCCCC  binary diffusion coefficient               2.4e-09

* * *

test: xn = mol fraction of the nth substance listed; settings: 333.2 K; 101 kPa; Liquid; x1 = 0
measured-metric: binary diffusion coefficient (m2/s)

>>> print(df.to_string())
                                   compound  measurement_unit  recorded_measurement
0  c1ccc2c(c1)sc1ccccc12 [dibenzothiophene] + CCCCCCCCCCCCCC              m2/s              1.06e-09
1  c1ccc2cc3ccccc3cc2c1 [anthracene] + CCCCCCCCCCCCCC              m2/s               9.4e-10
2  c1ccc2nc3ccccc3cc2c1 [acridine] + CCCCCCCCCCCCCC              m2/s              1.27e-09
3  c1ccc2ccccc2c1 [naphthalene] + CCCCCCCCCCCCCC              m2/s              1.42e-09
4  c1ccc2sccc2c1 [benzo[b]thiophene] + CCCCCCCCCCCCCC              m2/s              1.19e-09

* * *

assay: xn = mol fraction of the nth substance listed; conditions: 353.2 K; 101 kPa; Liquid; x1 = 0
measured-metric: binary diffusion coefficient (m2/s)

                                   compound  recorded_measurement
0  c1ccc2cc3ccccc3cc2c1 [anthracene] + CCCCCCCCCCCCCC              1.36e-09
1  c1ccc2ccccc2c1 [naphthalene] + CCCCCCCCCCCCCC              1.86e-09
2  c1ccc2sccc2c1 [benzo[b]thiophene] + CCCCCCCCCCCCCC              1.65e-09
3  c1ccc2c(c1)sc1ccccc12 [dibenzothiophene] + CCCCCCCCCCCCCC              1.41e-09
4  c1ccc2nc3ccccc3cc2c1 [acridine] + CCCCCCCCCCCCCC              1.55e-09
